molecular target: all other forms of liver alcohol dehydrogenase; assay: inhibition of the other (pyrazole-sensitive) forms of liver alcohol dehydrogenase; conditions: all other forms of liver alcohol dehydrogenase
readout: Ki

[
  {
    "smiles.string": "c1cn[nH]c1",
    "system.tested": "all other forms of liver alcohol dehydrogenase",
    "recorded.result": "< 1000 nM"
  }
]
